- system_under_test: T1, Myo5, Q04439
- T1 sequence (Q04439 1072-1160, looked up): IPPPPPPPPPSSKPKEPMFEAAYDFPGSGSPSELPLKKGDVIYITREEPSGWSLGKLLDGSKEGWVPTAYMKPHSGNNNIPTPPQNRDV
- measurement_protocol: SPOT array
- conditions: median of control spots 471
outcome_measure: SPOT intensity

Take a look at these entries with their results.
>>> numeric_readout("EAEEAAPQLPSRSSA")
0
>>> numeric_readout("PHNPSPFFPPPDFND")
244
>>> numeric_readout("IFLRISINFPLNYPN")
15

1. ATNVPVAPPPPPASL
2. KNRKNLPTIPIRLSG
3. RPVPPPPPMRTTTEG
4. NSVPIMPTLPPRPYI
Data request: Rank the items in ascending order with respect to SPOT intensity. Respond with the label ranking, as requested.
Data returned: 1, 2, 3, 4
(1: 0, 2: 1, 3: 2, 4: 25)
